# Study System: P. falciparum apicoplast DNA polymerase (Pf-apPOL) (Plasmodium falciparum)
# Sequence (Q8ILY1 entry or part of it): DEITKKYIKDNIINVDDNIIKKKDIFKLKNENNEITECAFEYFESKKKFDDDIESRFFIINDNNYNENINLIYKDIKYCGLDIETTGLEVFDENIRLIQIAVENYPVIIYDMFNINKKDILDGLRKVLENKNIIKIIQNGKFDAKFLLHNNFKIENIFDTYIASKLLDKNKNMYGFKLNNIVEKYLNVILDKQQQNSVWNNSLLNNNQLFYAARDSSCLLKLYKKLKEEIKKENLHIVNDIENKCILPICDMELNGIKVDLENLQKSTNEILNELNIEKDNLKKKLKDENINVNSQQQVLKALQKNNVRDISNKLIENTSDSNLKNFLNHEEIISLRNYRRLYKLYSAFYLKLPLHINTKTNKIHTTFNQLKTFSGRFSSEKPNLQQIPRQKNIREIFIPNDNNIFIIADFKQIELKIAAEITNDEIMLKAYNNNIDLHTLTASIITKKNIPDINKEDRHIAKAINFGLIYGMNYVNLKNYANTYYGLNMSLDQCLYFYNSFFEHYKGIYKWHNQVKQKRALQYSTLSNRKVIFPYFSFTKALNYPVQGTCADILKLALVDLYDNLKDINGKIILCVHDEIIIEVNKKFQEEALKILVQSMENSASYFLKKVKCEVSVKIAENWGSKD
# Test Details: Fluorescence-based high-throughput DNA polymerase assay (molecular beacon), primary screen and dose-response;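 note: test concentration in µM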
# Assay type: biochemical
# Recorded Conditions: DRC-2; 180'; concentration 5
Recorded Endpoint: % inhibition apPOL 180' (%)
Unit % implied. Number only.

>  <Molecule>
COCC(=O)Nc1c(-c2cccc(F)c2)nc2cc(C)ccn12 [Molecule 44, COCC(=O)Nc1c(nc2n1ccc(c2)C)c1cccc(c1)F]

>  <Readout Unit>
%

>  <% inhibition apPOL 180'>
15

$$$$
>  <Molecule>
Nc1c(S(=O)(=O)O)cc(Nc2ccccc2)c2c1C(=O)c1ccccc1C2=O [KU0045407]

>  <Readout Unit>
%

>  <% inhibition apPOL 180'>
5

$$$$
>  <Molecule>
CCOc1ccc(/C=C2\N=C(c3cc([N+](=O)[O-])cc([N+](=O)[O-])c3)OC2=O)cc1 [Molecule 97]

>  <Readout Unit>
%

>  <% inhibition apPOL 180'>
19

$$$$

Input: I have this molecule here, Cc1ccc(CCNC(=O)c2cnn3c(O)c(Cc4ccccc4F)c(C)nc23)cc1 [KU0097142] , and I need its recorded % inhibition apPOL 180'.
Output: 12

Input: Cool, now O=C(Cn1ccc2c(=O)[nH]ccc21)Nc1cc(F)ccc1F [Molecule 42, O=C(Cn1ccc2c1cc[nH]c2=O)Nc1cc(F)ccc1F]
Output: 4.53

Input: And what about the molecule CCCCSc1nnc2c(n1)OC(c1ccc([N+](=O)[O-])o1)Nc1ccccc1-2 (stereo not shown) [KU0065811] ?
Output: 19

Input: What about this molecule? N#Cc1c(C2CCCCC2)nc(Sc2ccc(C(F)(F)F)cc2[N+](=O)[O-])[nH]c1=O [Molecule 20]
Output: 7

Input: Next up: COc1ccc(-c2n[nH]cc2Oc2ccc(Cl)cc2)c(O)c1 [KU0029837]
Output: 13

Input: Same read-out for O=C(O)c1cccc(N2N=C(C(F)(F)F)/C(=C/c3ccc(-c4ccccc4[N+](=O)[O-])o3)C2=O)c1 [Molecule 100] ?
Output: 20

Input: Same lookup for COc1ccc(C)cc1NC(=O)Cn1ccc2c(=O)[nH]ccc21 [Molecule 15, COc1ccc(cc1NC(=O)Cn1ccc2c1cc[nH]c2=O)C] , please.
Output: 12

Input: Please answer likewise for COc1cccc(C(=O)N2CCc3c(nc4cc(-c5ccccc5)[nH]n4c3=O)C2)c1OC [Molecule 22]
Output: 13
